Catalogue of pKi values
target: Beta-secretase 1 (Homo sapiens); assay: Mixed type inhibition of recombinant human BACE1 using Rh-EVNLDAEFK-Quencher as substrate after 60 mins by Dixon plot analysis
Sequence (P56817 whole entry): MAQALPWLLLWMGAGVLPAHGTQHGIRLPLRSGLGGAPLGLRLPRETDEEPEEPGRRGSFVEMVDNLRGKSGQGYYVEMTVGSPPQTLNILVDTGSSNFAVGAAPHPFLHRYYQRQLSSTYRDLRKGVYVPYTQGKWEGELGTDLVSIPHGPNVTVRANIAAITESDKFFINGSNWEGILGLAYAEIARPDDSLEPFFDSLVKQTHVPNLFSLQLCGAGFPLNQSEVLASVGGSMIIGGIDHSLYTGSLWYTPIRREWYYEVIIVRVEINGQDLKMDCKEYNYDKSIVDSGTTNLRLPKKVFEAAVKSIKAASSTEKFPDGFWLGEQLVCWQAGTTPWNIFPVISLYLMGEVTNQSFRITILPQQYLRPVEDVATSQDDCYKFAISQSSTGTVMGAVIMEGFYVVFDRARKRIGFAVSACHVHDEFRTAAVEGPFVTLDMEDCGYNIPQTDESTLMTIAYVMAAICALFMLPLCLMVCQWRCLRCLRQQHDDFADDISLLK
pKi: −log10 of the molar value.

Compound: CC(C)=CCC/C(=C/CC/C(C)=C/CC/C(C)=C/CC1=CC(=O)C=C(C)C1=O)C(=O)O
pKi: 5.40
--
Compound: CC(C)=CCC/C(=C/CC/C(C)=C/CC/C(C)=C/Cc1cc(O)cc(C)c1O)C(=O)O [SARGAHYDROQUINOIC ACID]
pKi: 5.80

----------
As a worked illustration, we turn to IC50 data collected for Acetylcholinesterase (Electrophorus electricus, UniProt O42275).

Compound: CC(C)=CCC/C(=C/CC/C(C)=C/CC/C(C)=C/CC1=CC(=O)C=C(C)C1=O)C(=O)O
IC50, µM: 69.3

Compound: CC(C)=CCC/C(=C/CC/C(C)=C/CCC1(C)C=Cc2cc(O)cc(C)c2O1)C(=O)O (centres undefined)
IC50, µM: 97.3

Compound: CC(C)=CCC/C(=C/CC/C(C)=C/CC/C(C)=C/Cc1cc(O)cc(C)c1O)C(=O)O [SARGAHYDROQUINOIC ACID]
IC50, µM: 124

Compound: COc1ccc2cc3[n+](cc2c1OC)CCc1cc2c(cc1-3)OCO2
IC50, µM: 1.6
